These entries and their values trace back to PubChem BioAssay (NCI).

# Tested on: MDA-MB-468 breast
# ASSAY_SUMMARY: NCI tumour cell line growth inhibition, 48 h
READOUT_TYPE: TGI (µM)
Please respond with the number in µM and leave the unit unwritten.

Sample records with TGI:
COc1ccc(/C=C/C(=O)Nc2cc(/C=C\c3cc(OC)c(OC)c(OC)c3)cc(OC)c2OC)cc1OC    7.52
COc1ccc2nc3c(n2c1)C(=O)C(=O)c1ccccc1-3    5.63
O=S(=O)(Nc1ccc2ccccc2c1)N1CCCCC1    10.3
Cn1cc(-c2csc(-c3c[nH]c4ccccc34)n2)c2cccnc21    4.18

State recorded TGI with MDA-MB-468 breast, entry O=S(=O)(Nc1cc(F)cc(F)c1)c1ccc(-c2cnc(C3CC3)o2)cc1 , no comment. 17.9

State recorded TGI with MDA-MB-468 breast, entry Cn1cc(-c2nc(N)nnc2-c2c[nH]c3ccccc23)c2cc(Br)ccc21 , no comment. 2.04

State recorded TGI with MDA-MB-468 breast, entry CCCCCCCCn1ccc2cc(NC(=O)Cn3cc(CN4CCN(CC)CC4)nn3)ccc21 , no comment. 3.04
